target: CEGPCR12h receptor (Caenorhabditis elegans, UniProt Q20275); assay: [35S]GTPγS binding assay, CEGPCR12h expressed in CHO cells; format: biochemical, C. elegans; details: EC50 range, Table 11; one range for the group; results apply to all CEGPCR12 isoforms
Sequence (Q20275 1-402): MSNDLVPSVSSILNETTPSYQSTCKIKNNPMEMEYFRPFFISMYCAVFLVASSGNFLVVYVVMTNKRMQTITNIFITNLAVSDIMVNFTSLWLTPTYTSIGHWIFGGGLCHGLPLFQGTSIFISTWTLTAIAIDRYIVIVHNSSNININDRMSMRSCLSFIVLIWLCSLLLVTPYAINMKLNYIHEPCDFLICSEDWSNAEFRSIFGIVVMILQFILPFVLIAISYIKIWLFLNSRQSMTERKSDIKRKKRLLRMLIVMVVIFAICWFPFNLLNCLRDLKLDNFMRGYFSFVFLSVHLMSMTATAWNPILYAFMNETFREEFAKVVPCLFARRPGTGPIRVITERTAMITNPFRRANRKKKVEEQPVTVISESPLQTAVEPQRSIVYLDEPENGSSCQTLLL
pEC50: −log10 of the molar value. Where no end group is shown, it is not given here.
result_type: pEC50

TDVDHVFLRF-NH2 [TDVDHVFLRF-NH2]	5.52 to 5.82

// pEC50 value for PDVDHVFLRF-NH2 [PDVDHVFLRF-NH2] : 6.30 to 6.52

====

molecular target: CEGPCR7 receptor (Caenorhabditis elegans); construct: Each of the 22 putative GPCR-like receptor clones appeared to contain a full-length coding region; expressed in transfected cells; host or cells: CHO-K1, transient, pCR3.1 clone, 37 to 28 C temperature shift; test: [35S]GTPγS binding assay, membranes of CHO cells transfected with CEGPCR7; type: biochemical, C. elegans; settings: EC50, single values
Sequence (Q18534 whole entry): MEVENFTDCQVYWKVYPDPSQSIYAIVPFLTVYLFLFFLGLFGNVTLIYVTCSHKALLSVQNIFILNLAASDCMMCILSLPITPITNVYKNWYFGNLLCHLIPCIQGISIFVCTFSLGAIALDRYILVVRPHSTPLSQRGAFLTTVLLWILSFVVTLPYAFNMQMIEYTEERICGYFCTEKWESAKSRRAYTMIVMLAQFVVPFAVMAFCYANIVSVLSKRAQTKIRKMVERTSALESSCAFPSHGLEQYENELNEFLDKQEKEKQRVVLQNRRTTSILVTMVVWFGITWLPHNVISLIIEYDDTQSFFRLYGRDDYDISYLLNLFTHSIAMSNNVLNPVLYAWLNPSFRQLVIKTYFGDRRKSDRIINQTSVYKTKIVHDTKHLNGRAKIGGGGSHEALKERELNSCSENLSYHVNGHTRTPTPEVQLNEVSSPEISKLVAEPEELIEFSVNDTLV
result_type: EC50 (nM)
Give the value, in units of nM, as a plain number.

// EC50 value for H-GLGPRPLRF-NH2 [GLGPRPLRF-NH2] : 207

Taken from patent US6632621B1.
